- Experimental system: Tyrosine-protein phosphatase non-receptor type 1 (Homo sapiens) (UniProt P18031)
- Sequence (P18031 whole entry): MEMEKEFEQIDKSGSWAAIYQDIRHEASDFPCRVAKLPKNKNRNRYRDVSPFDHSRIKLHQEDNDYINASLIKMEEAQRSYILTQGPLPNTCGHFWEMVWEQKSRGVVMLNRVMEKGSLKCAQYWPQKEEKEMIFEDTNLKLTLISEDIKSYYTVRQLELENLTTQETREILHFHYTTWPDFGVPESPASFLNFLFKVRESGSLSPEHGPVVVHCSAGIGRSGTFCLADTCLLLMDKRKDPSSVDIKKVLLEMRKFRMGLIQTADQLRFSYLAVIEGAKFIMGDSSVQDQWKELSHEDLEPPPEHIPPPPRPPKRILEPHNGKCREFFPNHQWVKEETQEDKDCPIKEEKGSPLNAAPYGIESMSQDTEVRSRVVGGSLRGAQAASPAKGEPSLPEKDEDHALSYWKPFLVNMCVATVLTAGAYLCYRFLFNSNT
- Protocol details: Inhibitory activity against human protein tyrosine phosphatase 1B (PTP1B) at a concentration of 10 uM
Assay readout: inhibition (%)

> print(dat)
                               smiles.entry                       experimental.system  assay.readout  value.measured
1  CCCCCNC(=O)[C@H](Cc1ccc(OC(C(=O)O)C(=O)O)cc1)NC(=O)[C@H](Cc1ccccc1)NS(=O)(=O)Cc1ccccc1  Tyrosine-protein phosphatase non-receptor type 1 (Homo sapiens) (UniProt P18031)     inhibition              16

[A] CCCCCNC(=O)[C@H](Cc1ccc(OC(C(=O)O)C(=O)O)cc1)NC(=O)[C@H](COCc1ccccc1)NC(=O)OC(C)(C)C
[B] CCCCCNC(=O)[C@H](Cc1ccc(OC(C(=O)O)C(=O)O)cc1)NC(=O)[C@H](Cc1ccccc1)NC(=O)CCOC
[C] CCCCCCCCCCCCCCCCCC(=O)N[C@@H](Cc1ccccc1)C(=O)N[C@@H](Cc1ccc(OCC(=O)O)c(C(=O)O)c1)C(=O)NCCCCC
Descending sort on inhibition required. Provide your answer as the labels ordered per the instruction.
B, A, C

* * *

- Experimental system: Tyrosine-protein phosphatase non-receptor type 1 (Homo sapiens)
- Protocol details: Inhibitory activity against human protein tyrosine phosphatase 1B (PTP1B) at a concentration of 10 uM
Assay readout: inhibition (%)

> print(dat)
                                   compound  quantity.unit  value.measured
1  CCCCCNC(=O)[C@H](Cc1ccc(OCC(=O)O)c(C(=O)O)c1)NC(=O)[C@H](Cc1ccc(O)cc1)NC(=O)OC(C)(C)C              %              81
2  CCCCCNC(=O)[C@H](Cc1ccc(OCC(=O)O)c(C(=O)O)c1)NC(=O)[C@H](CCOCOC)NC(=O)OC(C)(C)C              %              42
3  CCCCCNC(=O)[C@H](Cc1ccc(OCC(=O)O)c(C(=O)O)c1)NC(=O)[C@H](CCO)NC(=O)OC(C)(C)C              %              45
4  CCCCCNC(=O)[C@H](Cc1ccc(OCC(=O)O)c(C(=O)O)c1)NC(=O)[C@H](Cc1ccccc1)NC(=O)CSc1c[nH]nn1              %              88
5  CCCCCNC(=O)[C@H](Cc1ccc(OCC(=O)O)c(C(=O)O)c1)NC(=O)[C@H](Cc1ccccc1)NC(=O)C[S+]([O-])c1nc[nH]n1 (some centres not stated)              %              85

[a] CCCCCNC(=O)[C@H](Cc1ccc(OCC(=O)O)c(C(=O)O)c1)NC(=O)[C@H](Cc1ccccc1)NC(=O)CSc1nc[nH]n1
[b] CCCCCNC(=O)[C@H](Cc1ccc(OC(C(=O)O)C(=O)O)cc1)NC(=O)[C@H](Cc1ccccc1)NC(=O)OC(C)(C)C
Hello, I am sorting some records. Could you say if a or b has the smaller inhibition value? When you have decided, please share the label of that item.
b
(b: 48%, a: 82%)

* * *

- Experimental system: Receptor-type tyrosine-protein phosphatase F (Homo sapiens) (UniProt P10586)
- Sequence (P10586 whole entry): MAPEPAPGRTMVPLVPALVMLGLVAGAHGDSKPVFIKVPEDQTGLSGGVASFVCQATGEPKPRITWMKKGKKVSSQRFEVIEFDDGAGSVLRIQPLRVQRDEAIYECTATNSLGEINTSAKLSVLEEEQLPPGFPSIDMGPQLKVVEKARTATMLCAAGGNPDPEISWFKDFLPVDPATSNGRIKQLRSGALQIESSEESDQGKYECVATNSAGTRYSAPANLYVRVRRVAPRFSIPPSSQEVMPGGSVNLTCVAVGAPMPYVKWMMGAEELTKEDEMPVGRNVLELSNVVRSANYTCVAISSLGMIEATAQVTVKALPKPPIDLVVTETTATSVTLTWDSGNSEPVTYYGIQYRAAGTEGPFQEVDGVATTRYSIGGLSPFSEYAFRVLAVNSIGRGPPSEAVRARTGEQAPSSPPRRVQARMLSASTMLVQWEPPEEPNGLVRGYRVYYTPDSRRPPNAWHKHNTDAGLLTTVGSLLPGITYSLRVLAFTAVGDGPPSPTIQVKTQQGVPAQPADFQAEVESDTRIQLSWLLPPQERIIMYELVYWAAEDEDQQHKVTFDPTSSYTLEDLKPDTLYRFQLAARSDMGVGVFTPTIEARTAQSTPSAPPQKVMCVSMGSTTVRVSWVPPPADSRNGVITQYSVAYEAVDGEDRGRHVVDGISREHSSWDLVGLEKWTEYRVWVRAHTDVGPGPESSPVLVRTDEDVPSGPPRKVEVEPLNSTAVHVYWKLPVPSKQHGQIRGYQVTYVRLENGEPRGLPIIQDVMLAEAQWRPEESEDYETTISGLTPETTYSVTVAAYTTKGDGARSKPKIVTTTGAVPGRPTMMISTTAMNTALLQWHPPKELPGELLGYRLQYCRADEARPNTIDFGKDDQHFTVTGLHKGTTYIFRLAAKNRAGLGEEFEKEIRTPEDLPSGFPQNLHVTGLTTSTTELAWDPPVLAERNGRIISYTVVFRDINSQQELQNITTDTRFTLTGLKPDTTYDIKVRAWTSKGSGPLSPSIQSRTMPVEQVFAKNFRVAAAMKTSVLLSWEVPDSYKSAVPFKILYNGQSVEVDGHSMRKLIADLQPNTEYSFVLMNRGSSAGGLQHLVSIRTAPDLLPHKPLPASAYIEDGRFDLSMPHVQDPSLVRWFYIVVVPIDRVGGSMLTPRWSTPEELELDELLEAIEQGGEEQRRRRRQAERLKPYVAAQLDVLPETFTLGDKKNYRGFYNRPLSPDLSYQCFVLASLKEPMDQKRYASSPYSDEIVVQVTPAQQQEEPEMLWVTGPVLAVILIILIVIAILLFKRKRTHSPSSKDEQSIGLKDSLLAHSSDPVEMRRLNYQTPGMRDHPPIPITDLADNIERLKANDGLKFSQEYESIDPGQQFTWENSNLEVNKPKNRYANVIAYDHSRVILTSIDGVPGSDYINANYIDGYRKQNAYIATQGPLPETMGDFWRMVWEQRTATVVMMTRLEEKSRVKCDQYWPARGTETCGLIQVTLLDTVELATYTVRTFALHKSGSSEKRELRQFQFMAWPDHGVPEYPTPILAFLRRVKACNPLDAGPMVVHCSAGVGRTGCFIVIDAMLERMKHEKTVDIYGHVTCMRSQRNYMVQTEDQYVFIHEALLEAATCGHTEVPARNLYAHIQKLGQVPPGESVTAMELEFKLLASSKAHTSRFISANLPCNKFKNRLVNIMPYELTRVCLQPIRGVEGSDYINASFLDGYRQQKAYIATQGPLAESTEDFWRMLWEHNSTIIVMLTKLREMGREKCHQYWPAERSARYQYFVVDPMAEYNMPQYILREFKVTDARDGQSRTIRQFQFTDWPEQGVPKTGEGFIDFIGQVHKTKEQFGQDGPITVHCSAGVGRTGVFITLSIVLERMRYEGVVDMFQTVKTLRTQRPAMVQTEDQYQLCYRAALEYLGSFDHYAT
- Protocol details: Inhibitory activity against phosphatase (LAR) at a concentration of 100 uM
Assay readout: inhibition (%)

Worked examples, 5 molecules total:
> print(dat)
                               smiles.entry  quantity.unit  value.measured
1  CCCCCNC(=O)[C@H](Cc1ccc(OCC(=O)O)c(C(=O)O)c1)NC(=O)[C@H](Cc1ccc(O)cc1)NC(=O)OC(C)(C)C              %               0
2  CCCCCNC(=O)[C@H](Cc1ccc(OCC(=O)O)c(C(=O)O)c1)NC(=O)[C@H](Cc1ccccc1)NC(=O)Cc1ccccc1              %               0
3  CCCCCNC(=O)[C@H](Cc1ccc(OCC(=O)O)c(C(=O)O)c1)NC(=O)[C@H](Cc1ccccc1)NC(=O)Cc1ccc(C(F)(F)F)cc1              %               0
4  CCCCCNC(=O)[C@H](Cc1ccc(OC(C(=O)O)C(=O)O)cc1)NC(=O)[C@H](CCSC)NC(=O)OC(C)(C)C              %               0
5  CCCCCNC(=O)[C@H](Cc1ccc(OCC(=O)O)c(C(=O)O)c1)NC(=O)[C@H](Cc1ccccc1)NC(=O)CSc1c[nH]nn1              %               0

[A] CCCCCNC(=O)[C@H](Cc1ccc(OC(C(=O)O)C(=O)O)cc1)NC(=O)[C@H](Cc1ccc(O)cc1)NC(=O)OC(C)(C)C
[B] CCCCCNC(=O)[C@H](Cc1ccc(OC(C(=O)O)C(=O)O)cc1)NC(=O)[C@H](COCc1ccccc1)NC(=O)OC(C)(C)C
[C] CCCCCNC(=O)[C@H](Cc1ccc(OCC(=O)O)c(C(=O)O)c1)NC(=O)[C@H](CO)NC(=O)OC(C)(C)C
[D] CCCCCNC(=O)[C@H](Cc1ccc(OCC(=O)O)c(C(=O)O)c1)NC(=O)[C@H](Cc1ccccn1)NC(=O)OC(C)(C)C
[E] CCCCCNC(=O)[C@H](Cc1ccc(OC(C(=O)O)C(=O)O)cc1)NC(=O)[C@H](CCc1ccccc1)NC(=O)OC(C)(C)C
Descending sort on inhibition required. Provide your answer as the labels ordered per the instruction.
E, B, D, C, A
(E: 7%, B: 3%, D: 2%, C: 1%, A: 0%)
